Below: a set of entries, each annotated with reported Kd.
Molecular target: TSLP, Q969D9
Experiment: Kd (SPR)
MEASURED METRIC: Kd (nM)

binder="unnamed (protein) chain 1: QMQLVESGGGVVQPGRSLRLSCAASGFTFSTFAMHWVRQAPGKGLEWVAVIWYDGSNKHYADSVKGRFTITRDNSKNTLNLQMNSLRAEDTAVYYCARAPRYDDEYEAFDVWGQGTMVTVSS chain 2: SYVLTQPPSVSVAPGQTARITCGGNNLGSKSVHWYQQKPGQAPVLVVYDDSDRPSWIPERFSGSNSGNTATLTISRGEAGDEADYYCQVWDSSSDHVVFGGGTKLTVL" value_reported=180
binder="unnamed (protein) chain 1: QMQLVESGGGVVQPGRSLRLSCAASGFTFRTYGMHWVRQAPGKGLEWVAVIWYDGSNKHYADSVKGRFTITRDNSKNTLNLQMNSLRAEDTAVYYCVRGSITWPTEYYLDYWGQGTMVTVSS chain 2: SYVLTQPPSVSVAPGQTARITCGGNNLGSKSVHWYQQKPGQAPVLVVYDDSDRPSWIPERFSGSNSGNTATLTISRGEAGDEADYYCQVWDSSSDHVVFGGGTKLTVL" value_reported=426
binder="unnamed (protein) chain 1: QMQLVESGGGVVQPGRSLRLSCAASGFTFRTYGMHWVRQAPGKGLEWVAVIWYDGSNKHYADSVKGRFTITRDNSKNTLNLQMNSLRAEDTAVYYCARAPRYDDYYDAFDVWGQGTMVTVSS chain 2: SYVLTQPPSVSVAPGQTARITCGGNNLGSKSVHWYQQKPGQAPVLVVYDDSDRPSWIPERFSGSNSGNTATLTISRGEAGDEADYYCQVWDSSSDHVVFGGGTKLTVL" value_reported=163
binder="unnamed (protein) chain 1: QMQLVESGGGVVQPGRSLRLSCAASGFTFRTYGMHWVRQAPGKGLEWVAVIWYDGSNKHYADSVKGRFTITRDNSKNTLNLQMNSLRAEDTAVYYCARAPRYDTYYEAFDVWGQGTMVTVSS chain 2: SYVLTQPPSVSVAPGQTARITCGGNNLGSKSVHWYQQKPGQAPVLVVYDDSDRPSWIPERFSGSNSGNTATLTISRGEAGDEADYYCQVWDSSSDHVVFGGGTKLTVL" value_reported=83.9
